- Method: MAD study: urine pharmacokinetics
- Assay type: in vivo, human
- Design: unit not given here
- Test context: human, urine, oral, 2.5 mg, 2.5 mg QD, normal salt diet; mean; read-out: CLR, D 1 (renal clearance, Day 1) (converted)
Readout kind: CL renal
Number, no unit, nothing else.

Q: So what does the record say about CL renal for CCC(=O)N[C@@H]1CCCc2c(-c3ccc4c(c3)CCC(=O)N4C)cncc21 [(R)-Compound 1] ?
A: 0.0136

====

- Method: Multiple-ascending dose (MAD) study, once daily for 10 days in healthy subjects: plasma pharmacokinetics
- Format: in vivo, human
- Test context: human, plasma, oral, 2.5 mg, 2.5 mg QD, normal salt diet; Day 10; mean (CV %); read-out: AUC0-tau
Readout kind: AUC (ng·h/mL)
State the answer as a number, implicitly in ng·h/mL.

Q: Look at this molecule and give its reported AUC. CCC(=O)N[C@@H]1CCCc2c(-c3ccc4c(c3)CCC(=O)N4C)cncc21 [(R)-Compound 1]
A: 677

====

- Method: Multiple-ascending dose (MAD) study, once daily for 10 days in healthy subjects: plasma pharmacokinetics
- Type: in vivo, human
- Test context: human, plasma, oral, 1.5 mg, 1.5 mg QD, normal salt diet; Day 10; mean (CV %); read-out: Vss/F
Readout kind: Vd/F (L)
Just the number please, in L, no unit attached.

Q: Entry CCC(=O)N[C@@H]1CCCc2c(-c3ccc4c(c3)CCC(=O)N4C)cncc21 [(R)-Compound 1] : reported Vd/F = ?
A: 137

====

- Method: MAD study: urine pharmacokinetics
- Format: in vivo, human
- Design: unit not given here
- Test context: human, urine, oral, 5 mg, 5.0 mg QD, low salt diet; mean; read-out: CLR, D 10 (renal clearance, Day 10) (converted)
Readout kind: CL renal
Respond numerically, and do not add a unit to the figure.

Q: May I ask what CL renal has been recorded for CCC(=O)N[C@@H]1CCCc2c(-c3ccc4c(c3)CCC(=O)N4C)cncc21 [(R)-Compound 1] ?
A: 0.00822

====

- Method: Single-ascending dose (SAD) study in healthy subjects: plasma and urine pharmacokinetics
- Test context: human, in vivo, po, 3 mg
Readout kind: Cmax (ng/mL)
Report as a plain number; the unit ng/mL is understood.

Q: Record request: Cmax value, item CCC(=O)N[C@@H]1CCCc2c(-c3ccc4c(c3)CCC(=O)N4C)cncc21 [(R)-Compound 1]
A: 31.9

====

- Method: Multiple-ascending dose (MAD) study, once daily for 10 days in healthy subjects: plasma pharmacokinetics
- Format: in vivo, human
- Test context: human, plasma, oral, 0.5 to 5 mg QD; read-out: median Tmax, range across treatment groups
Readout kind: Tmax

Q: Name the recorded Tmax for CCC(=O)N[C@@H]1CCCc2c(-c3ccc4c(c3)CCC(=O)N4C)cncc21 [(R)-Compound 1] .
A: 0.98 to 4 h

====

- Method: Relative bioavailability of tablet versus oral solution, single 5 mg dose
- Format: in vivo, human
- Test context: human, plasma, oral, 5 mg, tablet, read-out: Cmax, Mean (SD)
Readout kind: Cmax (ng/mL)
Lab book: enter the figure in ng/mL, no units written.

Q: Query (molecule): CCC(=O)N[C@@H]1CCCc2c(-c3ccc4c(c3)CCC(=O)N4C)cncc21 [(R)-Compound 1] ; field requested: Cmax
A: 53.1

====

- Method: Multiple-ascending dose (MAD) study, once daily for 10 days in healthy subjects: plasma pharmacokinetics
- Type: in vivo, human
- Test context: human, plasma, oral, 1.5 mg, 1.5 mg QD, normal salt diet; Day 10; mean (CV %)
Readout kind: AUC(0-inf) (ng·h/mL)
Response body: numeric value in ng·h/mL, unit text excluded.

Q: Which AUC(0-inf) value belongs to CCC(=O)N[C@@H]1CCCc2c(-c3ccc4c(c3)CCC(=O)N4C)cncc21 [(R)-Compound 1] ?
A: 1110

====

- Method: Single-ascending dose (SAD) study in healthy subjects: plasma and urine pharmacokinetics
- Test context: human, in vivo, po, 1 mg
Readout kind: Tmax
Please report the result as a number followed by the unit.

Q: Which Tmax reading was recorded for the compound CCC(=O)N[C@@H]1CCCc2c(-c3ccc4c(c3)CCC(=O)N4C)cncc21 [(R)-Compound 1] ?
A: 1 h

====

- Method: MAD study: urine pharmacokinetics
- Assay type: in vivo, human
- Set-up: unit not given here
- Test context: human, urine, oral, 1.5 mg, 1.5 mg QD, normal salt diet; mean; read-out: CLR, D 10 (renal clearance, Day 10) (converted)
Readout kind: CL renal
Reply: number alone, nothing else.

Q: Sample CCC(=O)N[C@@H]1CCCc2c(-c3ccc4c(c3)CCC(=O)N4C)cncc21 [(R)-Compound 1] — what was its CL renal?
A: 0.00733

====

- Method: Multiple-ascending dose (MAD) study, once daily for 10 days in healthy subjects: plasma pharmacokinetics
- Format: in vivo, human
- Test context: human, plasma, oral, 1.5 mg, 1.5 mg QD, normal salt diet; Day 1; mean (CV %); read-out: AUC0-24 h
Readout kind: AUC(0-t) (ng·h/mL)
I only need the number, in ng·h/mL, no unit after it.

Q: // returns reported AUC(0-t) for input CCC(=O)N[C@@H]1CCCc2c(-c3ccc4c(c3)CCC(=O)N4C)cncc21 [(R)-Compound 1]
A: 205

====

- Method: clinical
- Test context: human, in vivo, 1000 mg, Metformin plasma AUC0-t, Geom LS Mean
Readout kind: AUC(0-t) (ng·h/mL)
Unit ng·h/mL implied. Number only.

Q: Requested field: AUC(0-t). Item: CN(C)C(=N)N=C(N)N
A: 11000

====

- Method: Relative bioavailability of tablet versus oral solution, single 5 mg dose
- Type: in vivo, human
- Test context: human, plasma, oral, 5 mg, tablet, read-out: Cmax, GM (Geo. CV %)
Readout kind: Cmax (ng/mL)
Respond with the bare value in ng/mL.

Q: // returns reported Cmax for input CCC(=O)N[C@@H]1CCCc2c(-c3ccc4c(c3)CCC(=O)N4C)cncc21 [(R)-Compound 1]
A: 52.3

====

- Method: Single-ascending dose (SAD) study in healthy subjects: plasma and urine pharmacokinetics
- Test context: human, in vivo, po, 30 mg
Readout kind: AUC(0-inf) (ng·h/mL)
Please give a number only; it is taken to be in ng·h/mL.

Q: # lookup: AUC(0-inf) of CCC(=O)N[C@@H]1CCCc2c(-c3ccc4c(c3)CCC(=O)N4C)cncc21 [(R)-Compound 1]
A: 11000

====

- Method: Single-ascending dose (SAD) study in healthy subjects: plasma and urine pharmacokinetics
- Test context: human, in vivo, po, 90 mg
- Method: A second, generally lower peak was often observed at 3 to 4 hours postdose. A second, generally lower peak was often observed at 3 to 4 hours post-dose. […] Over the anticipated therapeutically relevant dose range (through 10 mg), peak and overall exposures (as assessed by Cmax and area under the concentration-time curve [AUC]) increased in a generally dose-proportional manner. Single- and Multiple-Dose Plasma Pharmacokinetics of (R)-compound 1. […]
Readout kind: AUC(0-t) (ng·h/mL)
Please state the figure in ng·h/mL; there is no need to write the unit.

Q: Which AUC(0-t) value is on record for CCC(=O)N[C@@H]1CCCc2c(-c3ccc4c(c3)CCC(=O)N4C)cncc21 [(R)-Compound 1] ?
A: 18300

====

- Method: Single-ascending dose (SAD) study in healthy subjects: plasma and urine pharmacokinetics
- Test context: human, in vivo, po, 1 mg
Readout kind: Cmax (ng/mL)
The response must be a number in ng/mL with no trailing unit.

Q: Dear colleague, I am looking for the recorded Cmax of the following molecule: CCC(=O)N[C@@H]1CCCc2c(-c3ccc4c(c3)CCC(=O)N4C)cncc21 [(R)-Compound 1]
A: 10.1

====

- Method: MAD study: urine pharmacokinetics
- Format: in vivo, human
- Parameters: unit not given here
- Test context: human, urine, oral, 2.5 mg, 2.5 mg QD, low salt diet; mean; read-out: CLR, D 1 (renal clearance, Day 1) (converted)
Readout kind: CL renal
Lab note: jot down the number only; don't add units.

Q: CL renal lookup needed for CCC(=O)N[C@@H]1CCCc2c(-c3ccc4c(c3)CCC(=O)N4C)cncc21 [(R)-Compound 1] , thanks.
A: 0.00797

====

- Method: Multiple-ascending dose (MAD) study, once daily for 10 days in healthy subjects: plasma pharmacokinetics
- Format: in vivo, human
- Test context: human, plasma, oral, 1.5 mg, 1.5 mg QD, normal salt diet; Day 10; median (min, max); read-out: Tmax, D 10
Readout kind: Tmax (h)
Express your answer in h, writing the number without its unit.

Q: Query (compound): CCC(=O)N[C@@H]1CCCc2c(-c3ccc4c(c3)CCC(=O)N4C)cncc21 [(R)-Compound 1] ; field requested: Tmax
A: 2.5

====

- Method: Single-ascending dose (SAD) study in healthy subjects: plasma and urine pharmacokinetics
- Test context: human, in vivo, po, 90 mg
Readout kind: half-life
State the value with its unit after it.

Q: Recorded half-life of CCC(=O)N[C@@H]1CCCc2c(-c3ccc4c(c3)CCC(=O)N4C)cncc21 [(R)-Compound 1] , please.
A: 25.3 h

Source: patent US20240277698A1
